- EXPERIMENTAL_TARGET: ABL (Homo sapiens)
- Sequence (P00519 whole entry): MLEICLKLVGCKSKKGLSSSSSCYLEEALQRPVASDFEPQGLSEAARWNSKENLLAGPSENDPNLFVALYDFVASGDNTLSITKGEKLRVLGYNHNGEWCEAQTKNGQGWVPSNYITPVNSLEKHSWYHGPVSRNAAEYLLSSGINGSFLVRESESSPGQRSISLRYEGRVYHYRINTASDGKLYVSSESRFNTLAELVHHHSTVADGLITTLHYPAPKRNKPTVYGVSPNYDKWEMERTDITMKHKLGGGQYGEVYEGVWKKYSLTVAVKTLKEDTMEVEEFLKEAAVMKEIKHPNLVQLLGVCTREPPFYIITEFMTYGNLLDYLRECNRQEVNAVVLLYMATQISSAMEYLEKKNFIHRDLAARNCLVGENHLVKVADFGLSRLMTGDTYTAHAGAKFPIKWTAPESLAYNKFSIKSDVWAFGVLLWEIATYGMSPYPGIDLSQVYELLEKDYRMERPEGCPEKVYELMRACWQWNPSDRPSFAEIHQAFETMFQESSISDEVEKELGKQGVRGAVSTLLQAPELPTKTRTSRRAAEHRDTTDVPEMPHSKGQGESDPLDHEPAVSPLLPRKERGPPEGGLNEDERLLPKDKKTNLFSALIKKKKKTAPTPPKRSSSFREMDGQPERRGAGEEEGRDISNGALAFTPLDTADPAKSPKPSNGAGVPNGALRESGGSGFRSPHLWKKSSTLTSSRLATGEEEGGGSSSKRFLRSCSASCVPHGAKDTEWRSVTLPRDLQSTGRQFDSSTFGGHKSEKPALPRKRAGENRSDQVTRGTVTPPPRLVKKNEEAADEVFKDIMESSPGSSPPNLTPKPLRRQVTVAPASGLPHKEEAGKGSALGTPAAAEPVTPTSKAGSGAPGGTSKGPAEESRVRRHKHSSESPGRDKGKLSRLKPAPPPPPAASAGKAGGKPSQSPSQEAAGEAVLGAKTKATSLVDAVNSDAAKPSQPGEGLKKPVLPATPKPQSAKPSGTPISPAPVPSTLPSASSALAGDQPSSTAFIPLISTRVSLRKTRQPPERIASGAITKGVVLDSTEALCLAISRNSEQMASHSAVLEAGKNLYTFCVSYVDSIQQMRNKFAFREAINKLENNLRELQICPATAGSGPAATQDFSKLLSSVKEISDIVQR
Could you please report measured pIC50 for the items listed next?
Give bare numbers, as −log10 of the molar value.

stdin: Annotate the compound CC(C)[C@H](N)C(=O)OCCOCCOc1cc2ncn(-c3ccc(C#N)cn3)c2nc1NC1CCOCC1 with its measured pIC50.
stdout: 6.20

More entries:
stdin: Annotate the compound C[C@]1(O)CC[C@@H](Nc2nc3c(cc2OCCOCCO)ncn3-c2ccc(C#N)cn2)CC1 with its measured pIC50.
stdout: 6.86

###

- EXPERIMENTAL_TARGET: c-SRC (Homo sapiens, UniProt P12931)
- Sequence (P12931 whole entry): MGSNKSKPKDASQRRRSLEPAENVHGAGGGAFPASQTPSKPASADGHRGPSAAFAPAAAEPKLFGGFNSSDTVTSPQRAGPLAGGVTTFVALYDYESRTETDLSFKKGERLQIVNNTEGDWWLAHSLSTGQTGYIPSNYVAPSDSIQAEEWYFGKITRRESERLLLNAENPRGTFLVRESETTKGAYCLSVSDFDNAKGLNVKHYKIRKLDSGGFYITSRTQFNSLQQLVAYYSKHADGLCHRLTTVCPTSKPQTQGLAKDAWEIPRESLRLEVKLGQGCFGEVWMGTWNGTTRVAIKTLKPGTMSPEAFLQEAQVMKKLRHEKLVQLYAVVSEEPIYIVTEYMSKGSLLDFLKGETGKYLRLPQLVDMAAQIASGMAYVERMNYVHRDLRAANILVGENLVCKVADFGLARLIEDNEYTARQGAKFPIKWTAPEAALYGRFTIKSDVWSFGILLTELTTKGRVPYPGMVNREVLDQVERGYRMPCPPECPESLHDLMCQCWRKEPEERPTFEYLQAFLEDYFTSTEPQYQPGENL
QUANTITY_MEASURED: IC50 (nM)
Give bare numbers, in nM.

stdin: Annotate the compound COCCOCCOc1cc2ncn(-c3ccc(C#N)cn3)c2nc1N[C@H]1CC[C@@](C)(O)CC1 [Compound 14] with its measured IC50.
stdout: 319

###

Observed IC50 values for CDK2 (Homo sapiens, UniProt P24941) are listed in what follows.

Completed entries (count: 3):
stdin: Annotate the compound N#Cc1ccc(-n2cnc3cc(OCCOCCO)c(NC4CCCC(O)C4)nc32)nc1 (stereo not shown) with its measured IC50.
stdout: 2670 nM

stdin: Annotate the compound COCCOCCOc1cc2ncn(-c3ccc(C#N)cn3)c2nc1NC1CCOCC1 with its measured IC50.
stdout: > 4000 nM

stdin: Annotate the compound N#Cc1ccc(-n2cnc3cc(OCCOCCO)c(N[C@@H]4COCC[C@@H]4O)nc32)nc1 (relative stereo) with its measured IC50.
stdout: > 1330 nM

Turning now to a further record.
stdin: Annotate the compound CC(C)[C@H](N)C(=O)OCCOCCOc1cc2ncn(-c3ccc(C#N)cn3)c2nc1NC1CCOCC1 with its measured IC50.
stdout: > 4000 nM

###

- Test system: TNFα triggered MMP13 release in SW1353 cells
- ASSAY_NAME: SW1353 cellular selectivity assay, TNFα trigger, MMP13 readout
- Format: cell-based, human
- DETAILS: Homo sapiens, TNFα trigger 10 ng/mL
pIC50: −log10 of the molar value.
QUANTITY_MEASURED: pIC50

stdin: Annotate the compound C[C@]1(O)CC[C@@H](Nc2nc3c(cc2OCCOCCO)ncn3-c2ccc(C#N)cn2)CC1 [Compound 12] with its measured pIC50.
stdout: < 4.70

Turning now to a further record.
stdin: Annotate the compound N#Cc1ccc(-n2cnc3cc(OCCOCCO)c(NC4CCOCC4)nc32)nc1 [Compound 1] with its measured pIC50.
stdout: < 4.70

###

Observed IC50 values for UniProt P49841 are listed in what follows.
Sequence (P49841 whole entry): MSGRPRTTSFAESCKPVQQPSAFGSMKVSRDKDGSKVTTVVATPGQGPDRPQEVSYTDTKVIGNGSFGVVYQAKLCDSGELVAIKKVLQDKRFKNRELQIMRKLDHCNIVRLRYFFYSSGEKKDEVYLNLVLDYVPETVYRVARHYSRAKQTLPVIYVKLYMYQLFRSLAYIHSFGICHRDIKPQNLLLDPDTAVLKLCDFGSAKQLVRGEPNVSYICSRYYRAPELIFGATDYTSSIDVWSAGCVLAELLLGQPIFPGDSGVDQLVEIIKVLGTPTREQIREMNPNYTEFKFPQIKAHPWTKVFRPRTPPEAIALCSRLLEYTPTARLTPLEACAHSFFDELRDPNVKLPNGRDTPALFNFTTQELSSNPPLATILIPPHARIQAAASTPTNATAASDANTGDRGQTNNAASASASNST

Completed entries (count: 2):
stdin: Look up and report IC50, with UniProt P49841 as system, for N#Cc1ccc(-n2cnc3cc(OCCOCCO)c(NC4CCCC(O)C4)nc32)nc1 (stereo not drawn)
stdout: > 4 µM

stdin: Look up and report IC50, with UniProt P49841 as system, for COCCOCCOc1cc2ncn(-c3ccc(C#N)cn3)c2nc1NC1CCOCC1
stdout: > 4 µM

Turning now to a further record.
stdin: Look up and report IC50, with UniProt P49841 as system, for C[C@]1(O)CC[C@@H](Nc2nc3c(cc2OCCOCCO)ncn3-c2ccc(C#N)cn2)CC1
stdout: > 1.33 µM

###

- EXPERIMENTAL_TARGET: human IRAK-4 (Homo sapiens, UniProt Q9NWZ3)
- Sequence (Q9NWZ3 1-460): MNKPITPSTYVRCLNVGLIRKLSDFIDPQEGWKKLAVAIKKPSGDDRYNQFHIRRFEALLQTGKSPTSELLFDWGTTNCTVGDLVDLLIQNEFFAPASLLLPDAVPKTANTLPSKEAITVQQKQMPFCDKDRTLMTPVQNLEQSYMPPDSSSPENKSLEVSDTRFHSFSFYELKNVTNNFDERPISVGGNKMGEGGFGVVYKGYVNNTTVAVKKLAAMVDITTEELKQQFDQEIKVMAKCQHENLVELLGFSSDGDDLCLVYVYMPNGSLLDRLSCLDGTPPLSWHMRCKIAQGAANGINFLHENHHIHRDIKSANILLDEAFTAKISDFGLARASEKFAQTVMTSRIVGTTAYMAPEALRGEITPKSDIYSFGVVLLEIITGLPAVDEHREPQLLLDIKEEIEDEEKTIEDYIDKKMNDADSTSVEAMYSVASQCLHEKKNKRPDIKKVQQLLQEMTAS
Could you please report measured IC50 for the items listed next?
Numbers only, in nM.

Completed entries (count: 3):
stdin: Annotate the molecule N#Cc1ccc(-n2cnc3cc(OCCOCCO)c(NC4CCS(=O)(=O)CC4)nc32)nc1 with its measured IC50.
stdout: 25.4

stdin: Annotate the molecule C[C@]1(O)CC[C@@H](Nc2nc3c(cc2OCCOCCO)ncn3-c2ccc(C#N)cn2)CC1 with its measured IC50.
stdout: 0.95

stdin: Annotate the molecule N#Cc1ccc(-n2cnc3cc(OCCOCCOS(=O)(=O)O)c(NC4CCOCC4)nc32)nc1 with its measured IC50.
stdout: 51.4

Turning now to a further record.
stdin: Annotate the molecule COCCOCCOc1cc2ncn(-c3ccc(C#N)cn3)c2nc1N(C)[C@H]1CC[C@@](C)(O)CC1 with its measured IC50.
stdout: 39.1
